B1: KLHDC10 (parent)
chain: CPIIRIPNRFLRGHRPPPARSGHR

- Variants of: B1
- protocol-details: protein stability index of a GFP-peptide fusion (GPS, HEK-293T) (PSI 1-6); higher = more stable;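 note: lentivirally expressed fusions sorted by FACS into six bins by GFP to DsRed ratio, PSI derived from sequencing read proportions per bin multiplied by bin number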
- measurement-context: c terminus: a fixed tail appended
measure-name: protein stability index
Could you keep your reply to the number by itself?

Value of protein stability index reported for the variant A19G is 1.82

Value of protein stability index reported for the variant G22C is 1.62

Value of protein stability index reported for the variant P7A is 2.38

Value of protein stability index reported for the variant R24M is 1.93

Value of protein stability index reported for the variant P17G is 2.09

Value of protein stability index reported for the variant N8D is 2.15

Value of protein stability index reported for the variant H23S is 1.02

Value of protein stability index reported for the variant I6W is 4.13

Value of protein stability index reported for the variant P18S is 2.37

Value of protein stability index reported for the variant F10E is 1.71

Value of protein stability index reported for the variant H14N is 1.89

Value of protein stability index reported for the variant P18E is 1.78

Value of protein stability index reported for the variant R9N is 2.01

Value of protein stability index reported for the variant C1S is 3.41

Value of protein stability index reported for the variant G13W is 2

Value of protein stability index reported for the variant G13K is 1.9
